- target_desc: T1, 4H3364-bN
- T1 chain: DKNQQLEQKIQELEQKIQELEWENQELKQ
- protocol_description: two-hybrid library CCNG1;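 also: natural log of median RNA to DNA barcode read ratio; higher means stronger binding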
Please mark class 1 if the recorded interaction score is equal to or greater than -0.7, and class 0 if it falls below.

Examples with answers:
{"binder": "DKIQQLEQKNQELEQEIQELKWENQELKQ [4H2444-bN]", "label_class": "class 1"}
{"binder": "DKIQQLKQKIQELKQKNQELEWENQELEQ [4H2931-bN]", "label_class": "class 0"}
{"binder": "DKIQQLEQENQELEQKNQELKWEIQELEQ [4H2233-bN]", "label_class": "class 1"}
{"binder": "DEIQQLEQKIQELEQEIQELEWKNQELKQ [4H264-bN]", "label_class": "class 1"}
{"binder": "DKIQQLEQENQELKQEIQELKWKIQELEQ [4H2253-bN]", "label_class": "class 0"}

Reported interaction score at or above -0.7? DKIQQLKQEIQELEQENQELKWEIQELEQ [4H2585-bN]
class 0

// data source = paper PMC10397247
